- Experimental Protocol: in vivo
- Assay type: in vivo, male C57BL/6 mice
- Measurement Context: male, C57BL/6, mouse, in vivo; 321; 321 IV 2 mg/kg, mice; 2 h; average of two values; read-out: Plasma concentrations (mean)
- Method: Total fifteen male mice were used in this study with n=3 mice/time point with sparse sampling study design. Animals were administered through intravenous route with solution formulation of 321 at 2 mg/kg dose. […]
Readout Name: concentration at 2 h (ng/mL)
One number for each entry, in ng/mL.

Give the reported value of concentration at 2 h for this record: COc1ccc([C@@]23CCC(OP(=O)(OC(C)C)OC(C)C)=C[C@@H]2N(C)CC3)cc1OC
1.38
